- System: UACC-62 melanoma
- testSummary: NCI tumour cell line growth inhibition, 48 h
assayMetric: TGI

compound	testedSystem	result
CN1CCN(CCCN)CC1	UACC-62 melanoma	> 100 µM
COCC(N=CN1CCCc2ccccc2[C@@H]1CCCCl)C(C)(C)C (stereo partly specified)	UACC-62 melanoma	32.1 µM
CCOC(=O)NC(=O)c1cn(CC(=O)NCC(=O)NCC(=O)NCCCN2CCN(CCCNC(=O)CNC(=O)CNC(=O)Cn3cc(C(=O)NC(=O)OCC)c(=O)[nH]c3=O)CC2)c(=O)[nH]c1=O	UACC-62 melanoma	> 100 µM
Cc1cc([C@H](C#N)c2nc3ccccc3[nH]2)nc(Cl)n1	UACC-62 melanoma	65.3 µM
COc1cc(S(=O)(=O)Nc2nc(-c3ccc(N4C(=O)C(CC(=O)O)SC4c4ccccc4O)cc3)cs2)ccc1Cl (stereo unspecified)	UACC-62 melanoma	> 100 µM
CC1(C)C2CCC3=C(CCC4(C)C5C[C@](C)(C(=O)O)CC[C@]5(C)CC[C@]34C)[C@@]2(C)CC[C@@H]1O (stereo partly specified)	UACC-62 melanoma	37.6 µM
COC(=O)C1C(C(=O)OC)C2(OC)c3ccccc3-c3ccccc3C12 (stereo unspecified)	UACC-62 melanoma	> 100 µM
ClCc1cccc(Cn2cnc3c(NC45CC6CC(CC(C6)C4)C5)ncnc32)c1	UACC-62 melanoma	36.5 µM
O=c1c2c(nc3n1CCS3)[nH]c1ccccc12	UACC-62 melanoma	> 100 µM
O=C(Nc1cccc2ccccc12)Nn1cnnc1	UACC-62 melanoma	> 100 µM
Cc1ccc2nc(CN3CCCC(O)C3)cc(=O)n2c1 (stereo unspecified)	UACC-62 melanoma	> 100 µM

###

A collection of molecules and their measured TGI
- Tested on: 786-0 renal
- testSummary: NCI tumour cell line growth inhibition, 48 h
assayMetric: TGI

> print(dat)
                                    molecule  testedsystem    result
 1                           CN1CCN(CCCN)CC1   786-0 renal  > 100 µM
 2  O=S(=O)(N/N=C/c1ccc(/C=N/NS(=O)(=O)c2ccccc2)cc1)c1ccccc1   786-0 renal  > 100 µM
 3               CC(=O)CC(=O)Nc1ccc2ccccc2c1   786-0 renal  > 100 µM
 4           Cc1cc(I)cc(CN(C)CCCN2CCSCC2)c1O   786-0 renal   53.3 µM
 5  Nc1ccc(N(S(=O)(=O)c2ccccc2)S(=O)(=O)c2ccccc2)c(Cl)c1   786-0 renal  > 100 µM
 6  O=C(O)c1ccc(P(=O)(O)c2ccc(C(=O)O)cc2Br)c(Br)c1   786-0 renal  > 100 µM
 7  NNC(=O)/C(=C/c1ccc(Cl)c(Cl)c1)NC(=O)c1ccccc1   786-0 renal  > 100 µM
 8  CCOC(=O)C(N)C[S][Sn]([CH3])([CH3])[Cl] (stereo unspecified)   786-0 renal  > 100 µM
 9  C[C@]12C[C@H](c3ccccc3)Nc3ccccc3N1C(c1ccccc1)=NO2   786-0 renal  > 100 µM
10  CCOC(=O)C(C(=O)OCC)=C1NC2(c3ccccc3Nc3ccc(C)cc32)C(C#N)S1 (stereo unspecified)   786-0 renal   30.1 µM
11     CC(C)c1ccc(C(=O)Nc2nc3ccc(O)cc3s2)cc1   786-0 renal   6.09 µM

###

- Tested on: OVCAR-3 ovarian
- testSummary: NCI tumour cell line growth inhibition, 48 h
Collected TGI values appear next to each entry.
assayMetric: TGI

> print(dat)
                                   compound    result
1                  O/N=C(\c1ccccc1)N1CCCCC1  > 100 µM
2  CC1C[C@@]2(c3ccccc3)C(=O)CCC[C@H]2N1 (stereo not given in full)  > 100 µM
3  COc1cc(OC)c(/C=C/S(=O)(=O)Cc2cnc(OC)c(N)c2)c(OC)c1  > 100 µM
4  COc1ccc(/C=N\NC(=O)CN2CCN(c3cc4c(cc3F)c(=O)c(C(=O)N/N=C/c3ccc(OC)c(OC)c3)cn4C3CC3)CC2)cc1OC   7.26 µM
5  O=C1CC(NC(=O)C(F)(F)F)c2c1csc2Br (stereo not given)  > 100 µM

###

- Tested on: MDA-MB-231 breast
- testSummary: NCI tumour cell line growth inhibition, 48 h
assayMetric: TGI (µM)

> print(dat)
                                   compound  assaymetric  uom  comparisonsymbol  numericvalue
1  COc1ccc(N2C(=O)CC(Cl)C2=O)cc1 (centres undefined)          TGI   µM                 =          36.5
2  COc1cc(OC)cc(C2CC(=O)Nc3c2c(C)nn3-c2nc3ccccc3[nH]2)c1 (centres undefined)          TGI   µM                 >           100
3  C=C1C(=O)O[C@H]2[C@H]1CC/C(CNC(=O)c1cc3cc(OC)ccc3[nH]1)=C\CC[C@@]1(C)O[C@@H]21          TGI   µM                 =          4.49
4  CC(=O)c1c(C)[nH]c(-c2nc3ccc(N4CCN(C)CC4)cc3[nH]2)c1-c1ccc(OCC2CCOCC2)cc1          TGI   µM                 =          16.9
5  Cc1oc2c(c1C)S(=O)(=O)C(C#N)=C(c1ccccc1)N2          TGI   µM                 >           100
6  N#C/C(=C\c1cn(Cc2ccccc2)c2ccccc12)c1nn(-c2ccccc2)c(N)c1C#N          TGI   µM                 =          14.2
7             C=C(Cl)c1c(OC)cccc1OCc1ccccc1          TGI   µM                 >           100
8       CCOC(=O)Nc1nc2ccc(Cn3cccc3)cc2[nH]1          TGI   µM                 >          27.2
9  C[C@]12C[C@H](c3ccccc3)Nc3ccccc3N1C(c1ccccc1)=NO2          TGI   µM                 >           100

###

Reported TGI is given for each of the following compounds.
- Tested on: OVCAR-5 ovarian
- testSummary: NCI tumour cell line growth inhibition, 48 h
assayMetric: TGI

> print(dat)
                                    compound  assaymetric    result
 1  CC/C(C)=C1\CCC(CN2CCOCC2)C1=O (stereo not given)          TGI   31.3 µM
 2  Nc1nc(N)c2cc(Sc3ccc4nc(N)nc(N)c4c3)ccc2n1          TGI  > 100 µM
 3  COC1CC(C)C(OC)C2=CC(=O)C=C(NC(=O)/C(C)=C/C=C\C(C)C(OC(N)=O)/C(C)=C\C(C)C1OC)C2=O (stereo not given)          TGI   17.8 µM
 4  COc1cc(OCc2ccc3nc(-c4ccccc4)c(Cl)nc3c2)cc(OC)c1OC          TGI  > 100 µM
 5  COc1ccc(OC)c2sc(N3C(=O)/C(=C/c4ccc(Cl)cc4)N=C3c3ccccc3)nc12          TGI  > 100 µM
 6                    CCN(CC)CSc1nc2ccccc2o1          TGI  > 100 µM
 7          OC(CCN1CCCCC1)(c1ccccc1)c1ccccc1          TGI  > 100 µM
 8  C=C1C(=O)OC2/C=C(\CO)C3OC3C3OC3(C)CC(OC(=O)/C(=C/C)CO)C12 (stereo not given)          TGI  > 100 µM
 9  O=C1NC(=O)C(Cc2ccccc2)(c2cccnc2)N1 (stereo not given)          TGI  > 100 µM
10  COc1c2nc(CCl)[nH]c(=O)c2c(OC)c2nc(CCl)[nH]c(=O)c12          TGI  > 100 µM

###

- Test system: MDA-MB-231 breast
- testSummary: NCI tumour cell line growth inhibition, 48 h
assayMetric: TGI

> print(dat)
                                   molecule    result
1  COc1ccc(OC)c2sc(N3C(=O)/C(=C/c4ccc(Cl)cc4)N=C3c3ccccc3)nc12  > 100 µM
2  C=CCC(N[C@H](CO)c1ccccc1)c1ccc2ccccc2n1 (some centres undefined)  > 100 µM
3  COc1ccc(/C=N\NC(=O)CN2CCN(c3cc4c(cc3F)c(=O)c(C(=O)N/N=C/c3ccc(OC)c(OC)c3)cn4C3CC3)CC2)cc1OC   6.31 µM
4  O=c1c(Oc2ccc(F)cc2F)cc2cnc(NC3CCOCC3)nc2n1C1CCS(=O)(=O)CC1   > 25 µM
5  Nc1c(C(=O)c2ccc(Cl)cc2)sc(Nc2ccccc2)c1-c1nc2ccccc2s1  > 100 µM
6  Cc1cc(C)c([O-])c(CN(C)CCN(C)Cc2cc(C)cc(C)c2[O-])c1.O=C([O-])c1cccc(C(=O)[O-])n1.[Ti+4]  > 100 µM
7  O=C1CC(CC(O)[C@@H]2CCCC[C@@H]2O)CC(=O)N1c1ccccc1 (some centres undefined)  > 100 µM
8  N=c1oc2ccc([N+](=O)[O-])cc2cc1C(=O)NCc1ccccc1   60.9 µM
9  Cc1nc2sc(C(=O)Nc3cccc(Cl)c3C)c(N)c2cc1C(=O)/C=C/c1ccccc1   2.26 µM

The measurements presented in this section are drawn from PubChem BioAssay (NCI).
